# EXPERIMENT_DESCRIPTION: reduced mouse 2C T cell binding to pMHC/ICAM-1 vesicles – MLPCN validation set, flow cytometry, LFA-1/ICAM-1 modulator project, pilot screen (AID 2523);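 also: mean PE anti-B7-1 fluorescence of CD8+ cells relative to row control; 100% = QL9-loaded vesicles with DMSO vehicle in the same plate row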
# COND: 2C mouse CD8+ T cells, at 7 µM, hits give low values
RESULT_TYPE: vesicle binding response (%)
Please state the figure in %; there is no need to write the unit.

Here is how some compounds turned out for vesicle binding response.
{"COMPOUND": "O=C(O)CCCc1ccccc1", "DISPLAY_UNIT": "%", "VALUE_OBSERVED": 264}
{"COMPOUND": "NC(=O)[C@@H]1[C@@H]2C(=O)N(c3ccc(F)cc3)C(=O)[C@@H]2[C@H]2C=Cc3ccccc3N21", "DISPLAY_UNIT": "%", "VALUE_OBSERVED": 126}
{"COMPOUND": "CC(C)(C)N(Cc1ccccc1)C(=O)c1ccc(Br)o1", "DISPLAY_UNIT": "%", "VALUE_OBSERVED": 147}
{"COMPOUND": "Cc1cccc(CN2CCN(C(c3ccccc3)c3ccc(Cl)cc3)CC2)c1 (stereo not given)", "DISPLAY_UNIT": "%", "VALUE_OBSERVED": 227}
{"COMPOUND": "COc1cc2c(cc1OC)CN(C(=O)c1ccc(S(=O)(=O)N(C)c3ccccc3)cc1)CC2", "DISPLAY_UNIT": "%", "VALUE_OBSERVED": 605}

// query What does the record list as vesicle binding response for C[C@]12C[C@H](O)[C@H]3[C@@H](CCC4=CC(=O)CC[C@@]43C)[C@@H]1CC[C@@H]2C(=O)CO ?
// result 222

###

# SYSTEM_UNDER_TEST: GTPase HRas (Homo sapiens)
# EXPERIMENT_DESCRIPTION: blockade of GTP loading onto mutant Ras – biochemical, activated mutant, multiplex bead flow cytometry, dose response (AID 1341);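 also: GST-tagged constitutively activated Ras mutant immobilized on beads and multiplexed with other GTPases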
# COND: bead-based flow cytometry, Bodipy-FL-GTP binding; series mostly up to 100 µM
Results with a measured potency or affinity are listed apart. Active and inactive are the calls of the source.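 The calls were made as follows: active = dose-response curve with midpoint inside the tested range, moderate steepness, significant amplitude and little compound fluorescence or bead-attachment interference; inactive = the rest.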
RESULT_TYPE: outcome

Here is how some compounds turned out for outcome.
{"COMPOUND": "O=C(COc1ncnc2cc([N+](=O)[O-])ccc12)NC(=O)NC1CCCCC1", "VALUE_OBSERVED": "inactive"}
{"COMPOUND": "Cc1cc(Cl)ccc1OCC(=O)OCC(=O)Nc1ccc(F)c([N+](=O)[O-])c1", "VALUE_OBSERVED": "inactive"}
{"COMPOUND": "COc1ccccc1OCc1ccoc1C(=O)O", "VALUE_OBSERVED": "inactive"}
{"COMPOUND": "Cc1cc(C)c2sc(N(CCN(C)C)C(=O)c3cc(Cl)sc3Cl)nc2c1", "VALUE_OBSERVED": "inactive"}
{"COMPOUND": "O=C(/C=C/c1ccc(Cl)c([N+](=O)[O-])c1)c1cccnc1", "VALUE_OBSERVED": "inactive"}

// query What does the record list as outcome for Cc1cccc(C)c1NC(=O)CSc1ccc([N+](=O)[O-])cn1 ?
// result inactive

###

# SYSTEM_UNDER_TEST: Integrin beta-1 (Homo sapiens) + Integrin alpha-4 (Homo sapiens) (UniProt P13612+P05556)
# Sequence (P05556 whole entry, looked up): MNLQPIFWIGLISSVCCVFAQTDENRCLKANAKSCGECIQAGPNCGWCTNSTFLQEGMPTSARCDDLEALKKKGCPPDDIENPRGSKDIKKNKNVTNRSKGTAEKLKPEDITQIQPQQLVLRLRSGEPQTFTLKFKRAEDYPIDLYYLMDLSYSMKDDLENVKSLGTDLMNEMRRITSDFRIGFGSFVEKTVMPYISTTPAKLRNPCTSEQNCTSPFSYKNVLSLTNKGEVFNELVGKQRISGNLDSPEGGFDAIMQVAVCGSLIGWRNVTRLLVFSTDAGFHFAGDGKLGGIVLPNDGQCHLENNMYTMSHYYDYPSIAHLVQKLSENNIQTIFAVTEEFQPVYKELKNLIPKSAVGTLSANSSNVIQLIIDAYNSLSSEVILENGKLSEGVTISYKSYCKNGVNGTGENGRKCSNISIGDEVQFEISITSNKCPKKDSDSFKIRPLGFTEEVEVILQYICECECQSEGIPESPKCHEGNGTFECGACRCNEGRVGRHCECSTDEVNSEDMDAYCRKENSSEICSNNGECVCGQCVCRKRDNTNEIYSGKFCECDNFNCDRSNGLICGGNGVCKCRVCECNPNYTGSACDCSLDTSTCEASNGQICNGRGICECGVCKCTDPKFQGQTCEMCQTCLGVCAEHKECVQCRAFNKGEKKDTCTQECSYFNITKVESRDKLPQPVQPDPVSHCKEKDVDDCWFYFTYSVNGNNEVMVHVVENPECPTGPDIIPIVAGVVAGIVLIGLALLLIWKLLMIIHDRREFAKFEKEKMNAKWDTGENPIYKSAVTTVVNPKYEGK
# Sequence (P13612 whole entry, looked up): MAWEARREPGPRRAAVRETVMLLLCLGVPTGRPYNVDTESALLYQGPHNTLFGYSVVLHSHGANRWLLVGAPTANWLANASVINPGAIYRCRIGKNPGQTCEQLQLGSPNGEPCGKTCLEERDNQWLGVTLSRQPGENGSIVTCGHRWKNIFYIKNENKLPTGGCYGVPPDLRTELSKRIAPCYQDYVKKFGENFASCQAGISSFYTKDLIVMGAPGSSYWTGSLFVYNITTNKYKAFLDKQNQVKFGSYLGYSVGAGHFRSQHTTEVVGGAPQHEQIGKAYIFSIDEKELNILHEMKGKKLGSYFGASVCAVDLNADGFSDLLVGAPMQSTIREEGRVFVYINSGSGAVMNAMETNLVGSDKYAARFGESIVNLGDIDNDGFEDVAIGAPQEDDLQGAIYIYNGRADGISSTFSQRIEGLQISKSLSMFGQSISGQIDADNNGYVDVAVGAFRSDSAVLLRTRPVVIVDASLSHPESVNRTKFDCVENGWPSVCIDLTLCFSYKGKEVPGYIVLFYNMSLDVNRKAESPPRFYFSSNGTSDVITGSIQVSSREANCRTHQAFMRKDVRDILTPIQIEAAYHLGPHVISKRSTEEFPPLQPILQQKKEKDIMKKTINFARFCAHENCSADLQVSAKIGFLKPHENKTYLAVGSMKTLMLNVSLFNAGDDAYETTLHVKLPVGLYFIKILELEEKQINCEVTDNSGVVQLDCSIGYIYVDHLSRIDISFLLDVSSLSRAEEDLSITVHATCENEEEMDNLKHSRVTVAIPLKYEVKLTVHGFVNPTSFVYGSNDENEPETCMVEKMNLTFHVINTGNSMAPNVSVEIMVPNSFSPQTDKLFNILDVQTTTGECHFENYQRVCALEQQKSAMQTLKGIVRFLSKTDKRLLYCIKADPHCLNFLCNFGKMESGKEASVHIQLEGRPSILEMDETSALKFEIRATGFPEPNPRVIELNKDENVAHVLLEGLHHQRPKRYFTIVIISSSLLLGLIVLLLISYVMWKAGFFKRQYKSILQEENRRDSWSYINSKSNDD
# EXPERIMENT_DESCRIPTION: alpha4beta1 integrin LIBS antibody binding reduction – U937 cells, HUTS-21 mAb, flow cytometry, validation set, VLA-4 allosteric modulator project, pilot screen (AID 2674);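 also: antibody binding induced by the VLA-4 ligand LDV present at three times its Kd; 0% = LDV ligand with antibody and no compound and 100% = antibody without LDV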
# COND: HUTS-21 LIBS mAb binding, at 6.7 µM, hits give high values, binding induced by LDV ligand
RESULT_TYPE: inhibition (%)
Please state the figure in %; there is no need to write the unit.

Here is how some compounds turned out for inhibition.
{"COMPOUND": "COc1ccc(CCNc2ncnc3c2[nH]c2cc(OC)c(OC)cc23)cc1OC", "DISPLAY_UNIT": "%", "inhibition": 0.64}
{"COMPOUND": "COc1ccc(C2OC[C@H]3O[C@H](O)[C@H](NC(C)=O)[C@@H](O)[C@@H]3O2)cc1 (some centres not stated)", "DISPLAY_UNIT": "%", "inhibition": 6.95}

// query What does the record list as inhibition for COc1ccc(-c2cc(C(=O)N3CCOCC3)c3cc(C)ccc3n2)cc1 ?
// result -8.78

// query Repeat with CC(C)NS(=O)(=O)c1ccc(OCC(=O)Nc2cccc(F)c2)cc1
// result -11.8

// query Repeat with CC1(C)CC(O)(CNCc2ccc3c(c2)OCO3)CCO1 (configuration not stated)
// result 15.9

// query Repeat with COc1c2ccoc2nc2c(OC)cccc12
// result 21.4

// query Repeat with O=C(NCCO)c1ccc(Cl)c(Cl)c1
// result -11.8

// query Repeat with Cc1cn([C@H]2C=C[C@@H](CO)O2)c(=O)[nH]c1=O
// result 16.1

// query Repeat with CCCC(=O)Nc1ccccc1NC(C)=O
// result -9.13

// query Repeat with OCCC1CN(Cc2nc(-c3ccccc3)cs2)CCN1Cc1ccc(F)cc1 (configuration not stated)
// result -6.45

// query Repeat with O=C(O)c1cc2cc(F)ccc2[nH]1
// result -15

// query Repeat with O=C(c1ccc(Cl)cc1)C1CCCN(C(=O)/C=C/c2ccccn2)C1 (configuration not stated)
// result -1.12
